# TEST SUMMARY: chemical genetic growth profiling, strain panel (AID 1159580);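 note: tested at 20 µM; growth read once vehicle control cultures reached saturation at 30 °C; lower values mean less growth of the strain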
# CONDITION LABEL: S. cerevisiae deletion strains, growth OD, locus YKL085W, strain MDH1
The campaign covered roughly 5,500 compounds. About 2,000 (36%) were called active. About 18% were inconclusive and are not listed. Cut-off read from the data, not from the text of the source: active = normalized growth mostly below about 0.91 (no sharp cut-off); inconclusive = no clear call, values can overlap the other calls; inactive = mostly above about 0.92. Some of the results follow.
Outcome codes: True for active, False for inactive

INSERT INTO results (compound, class_label) VALUES
  ('COc1c2ccccc2nc2occc12', 'False'),
  ('CC(CN(C)C)CN1c2ccccc2Sc2ccccc21 (centres undefined)', 'False'),
  ('N[C@@H]1[C@@H](O)[C@H](O)[C@@H](CO)O[C@H]1O', 'False'),
  ('COC(=O)CCC(C)[C@H]1CCC2C3C(C[C@H](O)[C@@]21C)[C@@]1(C)CC[C@@H](O)C[C@H]1C[C@H]3O (some centres undefined)', 'False'),
  ('CN(C)N=Nc1nc[nH]c1C(N)=O', 'False'),
  ('OC1=Cc2c(O)cc(O)cc2OC1(O)c1ccc(O)c(O)c1 (centres undefined)', 'False'),
  ('NC(Cc1ccc(F)cc1)C(=O)O (centres undefined)', 'False'),
  ('C=C1C2CC[C@@]3(C)[C@H](c4ccoc4)OC(=O)C[C@]13O[C@H]1CC(=O)C(C)(C)C(CC(=O)OC)[C@@]21C (some centres undefined)', 'False'),
  ('CCN(CCCc1ccccc1)CCCc1ccccc1', 'False'),
  ('Clc1ccc2c(c1)C(N1CCNCC1)=Nc1ccccc1O2', 'False'),
  ('CC(=O)Nc1nnc(S(N)(=O)=O)s1', 'False'),
  ('N[C@H](Cc1ccccc1)C(=O)O', 'False'),
  ('C[C@H](N)[C@H](O)c1ccccc1', 'False'),
  ('CC(C)CCCC(C)C1CCC2C3CC[C@H]4CCCC[C@]4(C)C3CC[C@]12C (some centres undefined)', 'False'),
  ('CC(=O)O[C@H]1CC[C@]2(C)C3C(=O)[C@@H](OC(C)=O)[C@@]4(C)C(C[C@@H]5O[C@]6(CCC(C)CO6)[C@@H](C)[C@@H]54)C3CC[C@H]2C1 (some centres undefined)', 'False'),
  ('N[C@@H](Cc1cc(I)c(Oc2ccc(O)c(I)c2)c(I)c1)C(=O)O', 'False'),
  ('C=C1C(C2(C)C=CC(=O)C(C)(C)C2CC(=O)OC)CC[C@@]2(C)[C@H](c3ccoc3)OC(=O)C3OC132 (some centres undefined)', 'False'),
  ('O=C(Nc1ccccc1)Nc1ccccc1', 'False'),
  ('COc1cc(S(C)=O)ccc1-c1nc2ncccc2[nH]1 (centres undefined)', 'False'),
  ('c1ccc2c(c1)CN1CCCC1=N2', 'False'),
  ('NS(=O)(=O)c1cc2c(cc1Cl)NC(C1CC3C=CC1C3)NS2(=O)=O (centres undefined)', 'False'),
  ('CC(CCC(=O)O)[C@H]1CCC2C3CC[C@@H]4C[C@H](O)CC[C@]4(C)C3CC[C@@]21C (some centres undefined)', 'False'),
  ('CC(=O)O[C@H]1CC[C@]2(C)C3=CC(=O)[C@@]4(C)C(C[C@@H]5OC6(OCC(C)CC6Br)[C@@H](C)[C@@H]54)C3CC[C@H]2C1 (some centres undefined)', 'True'),
  ('C[C@H](N)[C@H](O)c1cccc(O)c1', 'False'),
  ('COC(=O)c1c(C)cc(OC(=O)c2c(C)cc(O)c(C=O)c2O)c(C)c1O', 'False'),
  ('NCC(CC(=O)O)c1ccc(Cl)cc1 (centres undefined)', 'False'),
  ('Cc1cc(C)cc(OCC2CNC(=O)O2)c1 (centres undefined)', 'False'),
  ('Cc1cc(O)c(C=O)c2c1C(=O)Oc1c(COC(=O)/C=C/C(=O)O)c(O)c(C(=O)O)c(C)c1O2', 'False'),
  ('N[C@H](Cc1cc(I)c(Oc2ccc(O)c(I)c2)c(I)c1)C(=O)O', 'False');
